# System: RPMI-8226 leukemia
# ASSAY PROTOCOL: NCI tumour cell line growth inhibition, 48 h
Examples of compounds with documented TGI follow.

Check out these entries, answers already filled in.
> print(dat)
                                   compound              system  reported.measurement
1  C#CCOc1c(OC)cc(C(=O)/C(C)=C/c2cccc(N=[N+]=[N-])c2)cc1OC  RPMI-8226 leukemia              > 100 µM
2  CC1=C/C(=C(/c2ccc(O)c(C)c2)c2ccccc2C(=O)O)C=CC1=O  RPMI-8226 leukemia                 46 µM
3  C[C@]12CCC(=O)C=C1CC[C@@H]1[C@@H]2CC[C@]2(C)C(=O)/C(=C\c3ccccc3)C[C@@H]12  RPMI-8226 leukemia             > 26.1 µM
4  CCCC[Si](CCCC)(CCCC)O[C@@H](/C=C/C(=O)OCC)[C@H](Cc1ccccc1)O[Si](CCCC)(CCCC)CCCC  RPMI-8226 leukemia              > 100 µM
5  CC(C)[C@H](NC(=O)[C@@H](O)[C@H](N)Cc1ccccc1)C(=O)N[C@@H](Cc1ccccc1)C(=O)O  RPMI-8226 leukemia              > 100 µM

Input line: Report TGI for COc1ccc(OC)c(/C=C/c2cnnc3ccccc23)c1 please.
Output line: > 10 µM

Input line: Next compound up: COc1ccc2c(c1)N(CCC1CCCCN1C)c1ccccc1S2 (centres undefined)
Output line: 29.5 µM

Input line: Another compound to check: CC1=C(C(=O)Nc2ccc(Cl)c(Cl)c2)C(c2cccc(O)c2)NC(=S)N1 (centres undefined)
Output line: 38.1 µM

Input line: Can you check O=C(Nc1ncc(Cc2ccc(Cl)cc2)s1)c1ccc2c(c1)OCCO2 next?
Output line: > 100 µM
